Entry source: the supplement of paper PMC10307832

Parameter: relative viability. Scope: all listed entries.
- Tested on: NCI-H2087
- experiment-summary: relative viability (nuclei count vs DMSO), 5 days (fraction); higher = more cells survive
- condition-context: first compound 2.53 µM

>  <compound>
COc1nc(C)cnc1NS(=O)(=O)c1cccnc1-c1ccc(-c2nnco2)cc1 [Zibotentan] + CC(=O)c1c(C)c2cnc(Nc3ccc(N4CCNCC4)cn3)nc2n(C2CCCC2)c1=O [Palbociclib] (partner 0.5 µM)

>  <tested-on>
NCI-H2087

>  <relative viability>
0.268

$$$$
>  <compound>
O=c1cc(-c2cccc3c2Sc2ccccc2S3)oc(N2CCOCC2)c1 + Nc1nc2[nH]cc(CCc3ccc(C(=O)N[C@@H](CCC(=O)O)C(=O)O)cc3)c2c(=O)[nH]1 [Pemetrexed] (partner 0.2 µM)

>  <tested-on>
NCI-H2087

>  <relative viability>
0.649

$$$$
>  <compound>
COc1nc(C)cnc1NS(=O)(=O)c1cccnc1-c1ccc(-c2nnco2)cc1 [Zibotentan] + NC(=O)Nc1cc(-c2cccc(F)c2)sc1C(=O)N[C@H]1CCCNC1 [AZD7762] (partner 0.2 µM)

>  <tested-on>
NCI-H2087

>  <relative viability>
1.29

$$$$

* * *

Measured relative viability, listed per entry.
- Tested on: NCI-H2023
- experiment-summary: relative viability (nuclei count vs DMSO), 5 days (fraction); higher = more cells survive
- condition-context: first compound 20 µM

>  <compound>
COCC1(CO)C(=O)C2CCN1CC2 (stereo unspecified) [PRIMA-1MET] + COc1cccc2cc(-c3nc([C@H]4CC[C@H](C(=O)O)CC4)n4ncnc(N)c34)[nH]c12 [OSI-027] (partner 0.5 µM)

>  <relative viability>
0.241

$$$$
>  <compound>
COCC1(CO)C(=O)C2CCN1CC2 (stereo unspecified) [PRIMA-1MET] + Cc1nc(NC(=O)N2CCC[C@H]2C(N)=O)sc1-c1ccnc(C(C)(C)C(F)(F)F)c1 [Alpelisib] (partner 2 µM)

>  <relative viability>
0.568

$$$$
>  <compound>
COCC1(CO)C(=O)C2CCN1CC2 (stereo unspecified) [PRIMA-1MET] + CC1(C)CCC(c2ccc(Cl)cc2)=C(CN2CCN(c3ccc(C(=O)NS(=O)(=O)c4ccc(N[C@H](CCN5CCOCC5)CSc5ccccc5)c(S(=O)(=O)C(F)(F)F)c4)cc3)CC2)C1 [Navitoclax] (partner 0.5 µM)

>  <relative viability>
0.977

$$$$
>  <compound>
COCC1(CO)C(=O)C2CCN1CC2 (stereo unspecified) [PRIMA-1MET] + O=C(CCCCCCC(=O)Nc1ccccc1)NO [Vorinostat] (partner 1 µM)

>  <relative viability>
0.254

$$$$
>  <compound>
COCC1(CO)C(=O)C2CCN1CC2 (stereo unspecified) [PRIMA-1MET] + Nc1nc2[nH]cc(CCc3ccc(C(=O)N[C@@H](CCC(=O)O)C(=O)O)cc3)c2c(=O)[nH]1 [Pemetrexed] (partner 0.2 µM)

>  <relative viability>
0.147

$$$$
>  <compound>
COCC1(CO)C(=O)C2CCN1CC2 (stereo unspecified) [PRIMA-1MET] + Nc1ncn([C@H]2C[C@H](O)[C@@H](CO)O2)c(=O)n1 [Decitabine] (partner 2 µM)

>  <relative viability>
0.209

$$$$

* * *

- System: NCI-H2009
- experiment-summary: relative viability (nuclei count vs DMSO), 5 days (fraction); higher = more cells survive
- condition-context: first compound 0.08 µM
# key: entry, value: relative viability
quantity-kind: relative viability

>  <compound>
O=c1cc(-c2cccc3c2Sc2ccccc2S3)oc(N2CCOCC2)c1 + O=C(c1cc(Cc2n[nH]c(=O)c3ccccc23)ccc1F)N1CCN(C(=O)C2CC2)CC1 [Olaparib] (partner 8 µM)

>  <quantity-kind>
relative viability

>  <recorded-number>
0.746

$$$$
>  <compound>
COc1nc(C)cnc1NS(=O)(=O)c1cccnc1-c1ccc(-c2nnco2)cc1 [Zibotentan] + O=C(c1cc(Cc2n[nH]c(=O)c3ccccc23)ccc1F)N1CCN(C(=O)C2CC2)CC1 [Olaparib] (partner 8 µM)

>  <quantity-kind>
relative viability

>  <recorded-number>
0.688

$$$$
>  <compound>
COc1nc(C)cnc1NS(=O)(=O)c1cccnc1-c1ccc(-c2nnco2)cc1 [Zibotentan] + Nc1ncn([C@H]2C[C@H](O)[C@@H](CO)O2)c(=O)n1 [Decitabine] (partner 2 µM)

>  <quantity-kind>
relative viability

>  <recorded-number>
0.404

$$$$
>  <compound>
COc1nc(C)cnc1NS(=O)(=O)c1cccnc1-c1ccc(-c2nnco2)cc1 [Zibotentan] + CC(C)C[C@H](NC(=O)[C@H](Cc1ccccc1)NC(=O)c1cnccn1)B(O)O [Bortezomib] (partner 0.002 µM)

>  <quantity-kind>
relative viability

>  <recorded-number>
1.04

$$$$
>  <compound>
O=c1cc(-c2cccc3c2Sc2ccccc2S3)oc(N2CCOCC2)c1 + N=C(N)NC(=N)NCCc1ccccc1 [Phenformin] (partner 250 µM)

>  <quantity-kind>
relative viability

>  <recorded-number>
0.481

$$$$
>  <compound>
O=c1cc(-c2cccc3c2Sc2ccccc2S3)oc(N2CCOCC2)c1 + C[C@]1(O)C[C@@H](c2nc(-c3ccc4ccc(-c5ccccc5)nc4c3)c3c(N)nccn32)C1 [Linsitinib] (partner 1 µM)

>  <quantity-kind>
relative viability

>  <recorded-number>
1.17

$$$$
>  <compound>
COc1nc(C)cnc1NS(=O)(=O)c1cccnc1-c1ccc(-c2nnco2)cc1 [Zibotentan] + CC1(C)CCC(c2ccc(Cl)cc2)=C(CN2CCN(c3ccc(C(=O)NS(=O)(=O)c4ccc(N[C@H](CCN5CCOCC5)CSc5ccccc5)c(S(=O)(=O)C(F)(F)F)c4)cc3)CC2)C1 [Navitoclax] (partner 0.5 µM)

>  <quantity-kind>
relative viability

>  <recorded-number>
1.17

$$$$

* * *

- Test system: EMC-BAC-2
- experiment-summary: relative viability (nuclei count vs DMSO), 5 days (fraction); higher = more cells survive
- condition-context: first compound 20 µM
# note: boundary value 0.5 maps to NO; relative viability below it maps to YES

>  <compound>
COCC1(CO)C(=O)C2CCN1CC2 (stereo unspecified) [PRIMA-1MET] + CC(=O)Nc1cccc(-n2c(=O)n(C3CC3)c(=O)c3c(Nc4ccc(I)cc4F)n(C)c(=O)c(C)c32)c1 [Trametinib] (partner 0.02 µM)

>  <group>
NO

$$$$
>  <compound>
COCC1(CO)C(=O)C2CCN1CC2 (stereo unspecified) [PRIMA-1MET] + Cc1cc(Nc2cc(N3CCN(C)CC3)nc(Sc3ccc(NC(=O)C4CC4)cc3)n2)n[nH]1 [Tozasertib] (partner 0.1 µM)

>  <group>
YES

$$$$
>  <compound>
COCC1(CO)C(=O)C2CCN1CC2 (stereo unspecified) [PRIMA-1MET] + NC(=O)Nc1cc(-c2cccc(F)c2)sc1C(=O)N[C@H]1CCCNC1 [AZD7762] (partner 0.2 µM)

>  <group>
NO

$$$$
>  <compound>
COCC1(CO)C(=O)C2CCN1CC2 (stereo unspecified) [PRIMA-1MET] + CCNC(=O)c1noc(-c2cc(C(C)C)c(O)cc2O)c1-c1ccc(CN2CCOCC2)cc1 [Luminespib] (partner 0.01 µM)

>  <group>
NO

$$$$
>  <compound>
COCC1(CO)C(=O)C2CCN1CC2 (stereo unspecified) [PRIMA-1MET] + N=C(N)NC(=N)NCCc1ccccc1 [Phenformin] (partner 250 µM)

>  <group>
YES

$$$$

* * *

Each entry below carries its reported relative viability.
- Tested on: NCI-H1703
- experiment-summary: relative viability (nuclei count vs DMSO), 5 days (fraction); higher = more cells survive
- condition-context: first compound 0.1 µM

>  <compound>
CCN(CC)CCCCNc1ncc2cc(-c3cc(OC)cc(OC)c3)c(NC(=O)NC(C)(C)C)nc2n1 + NC(=O)Nc1cc(-c2cccc(F)c2)sc1C(=O)N[C@H]1CCCNC1 [AZD7762] (partner 0.2 µM)

>  <relative viability>
0.12

$$$$
>  <compound>
O=c1cc(N2CCOCC2)oc2c(-c3cccc4c3sc3ccccc34)cccc12 + CC1(C)CCC(c2ccc(Cl)cc2)=C(CN2CCN(c3ccc(C(=O)NS(=O)(=O)c4ccc(N[C@H](CCN5CCOCC5)CSc5ccccc5)c(S(=O)(=O)C(F)(F)F)c4)cc3)CC2)C1 [Navitoclax] (partner 0.5 µM)

>  <relative viability>
1.24

$$$$
>  <compound>
O=c1cc(N2CCOCC2)oc2c(-c3cccc4c3sc3ccccc34)cccc12 + Cc1nc(NC(=O)N2CCC[C@H]2C(N)=O)sc1-c1ccnc(C(C)(C)C(F)(F)F)c1 [Alpelisib] (partner 2 µM)

>  <relative viability>
0.331

$$$$
>  <compound>
O=c1cc(N2CCOCC2)oc2c(-c3cccc4c3sc3ccccc34)cccc12 + CS(=O)(=O)N1CCN(Cc2cc3nc(-c4cccc5[nH]ncc45)nc(N4CCOCC4)c3s2)CC1 [Pictilisib] (partner 1 µM)

>  <relative viability>
0.223

$$$$
>  <compound>
O=c1cc(N2CCOCC2)oc2c(-c3cccc4c3sc3ccccc34)cccc12 + O=C(c1cc(Cc2n[nH]c(=O)c3ccccc23)ccc1F)N1CCN(C(=O)C2CC2)CC1 [Olaparib] (partner 8 µM)

>  <relative viability>
0.411

$$$$
